B1: Adenylate kinase, P16304 (parent)
chain: MNLVLMGLPGAGKGTQGERIVEDYGIPHISTGDMFRAAMKEETPLGLEAKSYIDKGELVPDEVTIGIVKERLGKDDCERGFLLDGFPRTVAQAEALEEILEEYGKPIDYVINIEVDKDVLMERLTGRRICSVCGTTYHLVFNPPKTPGICDKDGGELYQRADDNEETVSKRLEVNMKQTQPLLDFYSEKGYLANVNGQQDIQDVYADVKDLLGGLKK

variants of: B1; settings: Bacillus subtilis (strain 168); pH 7; Thermal; CD; KH2PO4 10mM; transition: 2; reversible: yes; structure 2EU8; whole UniProt chain shown
Note to self: Tm under 50 °C means t, ties and anything higher get f.

[[record]]
mutation_code = "T179I"
class = "t"

[[record]]
mutation_code = "Q199R G214R"
class = "f"

[[record]]
mutation_code = "Q199R A193V"
class = "f"

[[record]]
mutation_code = "Q199R G214K"
class = "t"

[[record]]
mutation_code = "Q199R Q16L"
class = "f"

[[record]]
mutation_code = "Q199R T179I"
class = "f"

[[record]]
mutation_code = "Q199R G213Q"
class = "t"

[[record]]
mutation_code = "Q199R G213A"
class = "t"

